IC50 values, listed per item
# assayed target: PD-1/PD-L1 (Homo sapiens (Human), UniProt Q9NZQ7)
# Sequence (Q9NZQ7 19-238): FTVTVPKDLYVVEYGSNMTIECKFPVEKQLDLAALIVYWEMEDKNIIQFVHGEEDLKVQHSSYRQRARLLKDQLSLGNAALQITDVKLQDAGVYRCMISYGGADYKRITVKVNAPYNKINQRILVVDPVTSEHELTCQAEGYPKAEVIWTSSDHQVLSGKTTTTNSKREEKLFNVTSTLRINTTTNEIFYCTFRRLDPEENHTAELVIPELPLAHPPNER
# procedure text: PD-1/PD-L1 Binding Assay (Alphascreen)
# condition set: numeric values
Provide the reading as a plain figure in nM.

Some compounds with recorded IC50:
Cc1c(-c2nc3cc(CN4CC5(CC5)C4)c(OC(F)F)cc3o2)cccc1-c1cccc(-c2nc3cc(CN4CCC[C@H]4C(=O)O)c(OC(F)F)cc3o2)c1C = 1.1
Cc1c(-c2nc3cc(CN4CC5(C4)CS(=O)(=O)C5)c(OC(F)F)cc3o2)cccc1-c1cccc(-c2nc3cc(CN4CCC[C@H]4C(=O)O)c(OC(F)F)cc3o2)c1C = 6.3

Then there is this compound:
Ask | Looking for the measured IC50 of Cc1c(-c2nc3ccc(CN4CCCC4)cn3n2)cccc1-c1cccc(-c2nc3cc(CN4CCC[C@H]4C(=O)O)c(OC(F)F)cc3o2)c1C , can you help?
Reply | 0.87

Values compiled from patent US12187713B2.
